Data provenance: paper PMC8607422

- System: human peripheral blood mononuclear cells (PBMCs)
- ASSAY_TEXT: Ex vivo human PBMC cytokine induction assay
- Type: cell-based
- EXPERIMENTAL_CONTEXT: 24 h, Donor 2, 24 h, read-out: EC50 IL-6 induction
QUANTITY: EC50 (nM)
Answer format: numeric, nM implied, no suffix.

Problem: Supply measured EC50 of CCCN(CCC)C(=O)C1=Cc2ccc(-c3ccc(C(=O)N4CCCC4)cc3)cc2N=C(N)C1 in your reply.
Result: 439

* * *

- Tested on: human peripheral blood mononuclear cells (PBMCs)
- ASSAY_TEXT: Ex vivo human PBMC cytokine induction assay
- Type: cell-based
- EXPERIMENTAL_CONTEXT: 24 h, Donor 2, 24 h, read-out: EC50 IL-12(p70) induction
pEC50: −log10 of the molar value.
QUANTITY: pEC50

Problem: Supply measured pEC50 of CCCN(CCC)C(=O)C1=Cc2ccc(-c3ccc(C(=O)N4CCCC4)cc3)cc2N=C(N)C1 [Motolimod, motolimod] in your reply.
Result: < 4.52

* * *

- ASSAY_TEXT: Cell viability (ATPlite 1 Step) cytotoxicity assay
- Format: cell-based
- EXPERIMENTAL_CONTEXT: human, HEK-Blue hTLR7 and hTLR8 cells
QUANTITY: CC50 at 24 h

Problem: Supply measured CC50 at 24 h of CCCN(CCC)C(=O)C1=Cc2ccc(-c3ccc(C(=O)N4CCCC4)cc3)cc2N=C(N)C1 in your reply.
Result: > 50 µM

* * *

- Tested on: human peripheral blood mononuclear cells (PBMCs)
- ASSAY_TEXT: Ex vivo human PBMC cytokine induction assay
- Format: cell-based
- EXPERIMENTAL_CONTEXT: 24 h, Donor 2, 24 h, read-out: EC50 IL-12(p40) induction
QUANTITY: EC50 (nM)
Answer format: numeric, nM implied, no suffix.

Problem: Supply measured EC50 of CCCN(CCC)C(=O)C1=Cc2ccc(-c3ccc(C(=O)N4CCCC4)cc3)cc2N=C(N)C1 in your reply.
Result: 344

* * *

- TESTED_ON: hTLR4 (Homo sapiens, UniProt O00206+Q9Y6Y9)
- Sequence (O00206 24-839): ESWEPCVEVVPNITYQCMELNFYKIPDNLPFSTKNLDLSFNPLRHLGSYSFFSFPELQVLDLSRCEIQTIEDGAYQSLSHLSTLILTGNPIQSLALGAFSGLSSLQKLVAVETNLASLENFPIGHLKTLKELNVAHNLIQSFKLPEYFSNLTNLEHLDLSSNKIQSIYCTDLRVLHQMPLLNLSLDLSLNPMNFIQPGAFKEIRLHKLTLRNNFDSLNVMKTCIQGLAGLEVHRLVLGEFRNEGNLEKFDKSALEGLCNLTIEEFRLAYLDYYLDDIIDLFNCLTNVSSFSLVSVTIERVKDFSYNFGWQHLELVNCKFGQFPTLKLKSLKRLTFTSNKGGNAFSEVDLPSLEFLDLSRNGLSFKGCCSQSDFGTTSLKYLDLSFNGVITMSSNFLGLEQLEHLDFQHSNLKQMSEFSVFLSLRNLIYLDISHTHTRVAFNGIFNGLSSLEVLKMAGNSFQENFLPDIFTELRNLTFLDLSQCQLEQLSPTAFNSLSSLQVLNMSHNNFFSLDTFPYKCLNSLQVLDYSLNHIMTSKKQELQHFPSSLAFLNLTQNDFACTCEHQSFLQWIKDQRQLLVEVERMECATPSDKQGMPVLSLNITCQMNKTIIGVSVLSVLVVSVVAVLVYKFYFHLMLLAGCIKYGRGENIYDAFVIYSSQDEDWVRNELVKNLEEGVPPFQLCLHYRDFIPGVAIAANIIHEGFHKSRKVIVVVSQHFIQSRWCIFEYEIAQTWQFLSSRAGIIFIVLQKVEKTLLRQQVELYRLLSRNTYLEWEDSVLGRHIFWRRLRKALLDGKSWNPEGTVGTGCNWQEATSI
- Sequence (Q9Y6Y9 17-160 limits assumed): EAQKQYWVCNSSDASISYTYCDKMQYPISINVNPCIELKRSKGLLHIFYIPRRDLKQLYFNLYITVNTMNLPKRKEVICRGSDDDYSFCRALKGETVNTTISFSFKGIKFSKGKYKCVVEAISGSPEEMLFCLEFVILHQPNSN
- ASSAY_TEXT: HEK-Blue hTLR4 SEAP reporter agonist assay
- EXPERIMENTAL_CONTEXT: HEK-Blue hTLR4 cells, highest concentration 50 μM
QUANTITY: EC50

Problem: Supply measured EC50 of CCCN(CCC)C(=O)C1=Cc2ccc(-c3ccc(C(=O)N4CCCC4)cc3)cc2N=C(N)C1 [Motolimod, motolimod] in your reply.
Result: > 50 µM

* * *

- TESTED_ON: hTLR9 (Homo sapiens)
- Sequence (Q9NR96 26-1032): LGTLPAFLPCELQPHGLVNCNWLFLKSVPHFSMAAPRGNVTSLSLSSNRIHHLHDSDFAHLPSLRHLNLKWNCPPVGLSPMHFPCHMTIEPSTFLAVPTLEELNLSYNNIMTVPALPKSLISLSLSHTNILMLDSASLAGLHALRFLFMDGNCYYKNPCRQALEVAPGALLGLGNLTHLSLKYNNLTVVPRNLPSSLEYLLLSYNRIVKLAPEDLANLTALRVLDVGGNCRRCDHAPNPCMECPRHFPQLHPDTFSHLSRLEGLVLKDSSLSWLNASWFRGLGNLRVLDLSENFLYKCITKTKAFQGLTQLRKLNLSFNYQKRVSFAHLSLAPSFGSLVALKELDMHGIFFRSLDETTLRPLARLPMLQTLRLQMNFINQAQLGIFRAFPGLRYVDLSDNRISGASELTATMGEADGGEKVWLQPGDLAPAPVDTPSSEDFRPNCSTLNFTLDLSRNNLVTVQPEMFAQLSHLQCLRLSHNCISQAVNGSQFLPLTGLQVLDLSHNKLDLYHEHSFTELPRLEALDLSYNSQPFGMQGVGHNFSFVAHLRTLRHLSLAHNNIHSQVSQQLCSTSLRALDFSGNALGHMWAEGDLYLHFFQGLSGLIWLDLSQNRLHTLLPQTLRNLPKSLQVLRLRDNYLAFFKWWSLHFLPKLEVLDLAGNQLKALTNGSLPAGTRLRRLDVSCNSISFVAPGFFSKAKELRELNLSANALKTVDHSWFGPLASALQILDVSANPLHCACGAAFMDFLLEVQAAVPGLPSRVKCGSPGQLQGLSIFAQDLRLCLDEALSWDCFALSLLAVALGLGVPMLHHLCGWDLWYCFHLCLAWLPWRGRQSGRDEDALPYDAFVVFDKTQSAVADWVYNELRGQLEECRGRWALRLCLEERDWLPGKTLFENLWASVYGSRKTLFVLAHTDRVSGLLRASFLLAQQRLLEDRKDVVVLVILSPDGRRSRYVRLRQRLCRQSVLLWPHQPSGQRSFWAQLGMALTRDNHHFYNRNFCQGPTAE
- ASSAY_TEXT: HEK-Blue hTLR9 SEAP reporter agonist assay
- EXPERIMENTAL_CONTEXT: HEK-Blue hTLR9 cells, highest concentration 50 μM
QUANTITY: EC50

Problem: Supply measured EC50 of CCCN(CCC)C(=O)C1=Cc2ccc(-c3ccc(C(=O)N4CCCC4)cc3)cc2N=C(N)C1 [Motolimod, motolimod] in your reply.
Result: > 50 µM

* * *

- ASSAY_TEXT: in vivo
- Design: species or system Sprague Dawley rats
- EXPERIMENTAL_CONTEXT: Sprague Dawley, rat, sc, 10 mg/kg
QUANTITY: AUC(0-inf)

Problem: Supply measured AUC(0-inf) of CCCN(CCC)C(=O)C1=Cc2ccc(-c3ccc(C(=O)N4CCCC4)cc3)cc2N=C(N)C1 [Motolimod, motolimod] in your reply.
Result: 2130 ng·h/mL

* * *

- ASSAY_TEXT: in vivo
- Design: species or system cynomolgus monkeys
- EXPERIMENTAL_CONTEXT: cynomolgus, cynomolgus monkey, sc, 1 mg/kg
QUANTITY: half-life (min)
Answer format: numeric, min implied, no suffix.

Problem: Supply measured half-life of CCCN(CCC)C(=O)C1=Cc2ccc(-c3ccc(C(=O)N4CCCC4)cc3)cc2N=C(N)C1 in your reply.
Result: 85.8

* * *

- Tested on: human peripheral blood mononuclear cells (PBMCs)
- ASSAY_TEXT: Ex vivo human PBMC cytokine induction assay
- Type: cell-based
- EXPERIMENTAL_CONTEXT: 24 h, Donor 2, 24 h, read-out: EC50 IL-1β induction
QUANTITY: pEC50
Entry type: numeric. Quantity: pEC50, the -log10 of concentration in molar units.

Problem: Provide pEC50, tested on human peripheral blood mononuclear cells (PBMCs), for CCCN(CCC)C(=O)C1=Cc2ccc(-c3ccc(C(=O)N4CCCC4)cc3)cc2N=C(N)C1 [Motolimod, motolimod] .
Result: 6.25

* * *

- TESTED_ON: hTLR8 (Homo sapiens)
- Sequence (Q9NR97 27-1041): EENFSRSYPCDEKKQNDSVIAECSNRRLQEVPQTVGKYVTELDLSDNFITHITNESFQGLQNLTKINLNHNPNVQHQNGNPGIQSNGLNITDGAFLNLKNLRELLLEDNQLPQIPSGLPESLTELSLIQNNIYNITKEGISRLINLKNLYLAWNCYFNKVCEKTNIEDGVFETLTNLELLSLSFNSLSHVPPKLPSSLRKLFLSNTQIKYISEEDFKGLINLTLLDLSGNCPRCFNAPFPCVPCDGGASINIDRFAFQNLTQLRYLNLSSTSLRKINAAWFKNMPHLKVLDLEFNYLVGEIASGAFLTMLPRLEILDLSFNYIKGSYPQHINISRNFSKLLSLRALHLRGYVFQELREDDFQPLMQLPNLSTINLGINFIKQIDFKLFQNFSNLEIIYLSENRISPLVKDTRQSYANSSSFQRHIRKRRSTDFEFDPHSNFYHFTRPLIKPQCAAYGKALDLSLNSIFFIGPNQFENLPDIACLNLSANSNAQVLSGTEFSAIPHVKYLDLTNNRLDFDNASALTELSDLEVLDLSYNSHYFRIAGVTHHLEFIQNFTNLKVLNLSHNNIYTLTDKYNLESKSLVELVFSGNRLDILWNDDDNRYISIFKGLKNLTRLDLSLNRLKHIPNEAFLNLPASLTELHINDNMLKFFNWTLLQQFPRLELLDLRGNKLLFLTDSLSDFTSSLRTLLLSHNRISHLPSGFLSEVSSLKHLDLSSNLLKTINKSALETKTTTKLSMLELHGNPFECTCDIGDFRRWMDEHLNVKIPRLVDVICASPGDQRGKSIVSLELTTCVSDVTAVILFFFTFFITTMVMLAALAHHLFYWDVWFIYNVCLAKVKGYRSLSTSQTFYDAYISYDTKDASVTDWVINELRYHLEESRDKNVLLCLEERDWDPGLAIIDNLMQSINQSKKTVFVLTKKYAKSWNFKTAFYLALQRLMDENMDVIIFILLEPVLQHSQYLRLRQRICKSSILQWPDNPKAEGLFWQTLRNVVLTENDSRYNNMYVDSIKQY
- ASSAY_TEXT: HEK-Blue hTLR8 SEAP reporter agonist assay
- EXPERIMENTAL_CONTEXT: HEK-Blue hTLR8 cells, 24 h, SEAP; read-out: EC50 in hTLR8 agonist activity (TLR8 cell EC50)
QUANTITY: EC50 (nM)
Answer format: numeric, nM implied, no suffix.

Problem: Supply measured EC50 of CCCN(CCC)C(=O)C1=Cc2ccc(-c3ccc(C(=O)N4CCCC4)cc3)cc2N=C(N)C1 in your reply.
Result: 109
